# Test system: 422866-222-R5-J1-PDC complex spheroids viability;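 further: spheroids exposed to compounds for 7 days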
# TEST_PROTOCOL: Anticancer human tumor 422866-222-R5-J1-PDC patient-derived pancreatic adenocarcinoma cell line growth inhibition [RAS]; active means viability on the fitted dose curve at most 10% of control; inactive means the rest
# MEASUREMENT_CONDITIONS: second compound 0.0949 µM; first compound 1 µM
Answer with one of the outcomes active, inactive

Some entries whose results are on file:
COMPOUND: CC(C)NCC(C(=O)N1CCN(c2ncnc3c2C(C)CC3O)CC1)c1ccc(Cl)cc1 (centres undefined) + CCn1c(-c2cc(N3CCN(C)CC3)cnc2C(C)OC)c2c3cc(ccc31)-c1csc(n1)CC(NC(=O)C1CC1C)C(=O)N1CCCC(N1)C(=O)OCC(C)(C)C2
CLASSIFICATION: inactive
--
COMPOUND: CC(Nc1ccc2c(c1)OCCn1cc(N3C(=O)OCC3C(F)F)nc1-2)C(N)=O (centres undefined) + CCn1c(-c2cc(N3CCN(C)CC3)cnc2C(C)OC)c2c3cc(ccc31)-c1csc(n1)CC(NC(=O)C1CC1C)C(=O)N1CCCC(N1)C(=O)OCC(C)(C)C2
CLASSIFICATION: active
--
COMPOUND: CCN1CCN(Cc2ccc(Nc3ncc(F)c(-c4cc(F)c5nc(C)n(C(C)C)c5c4)n3)nc2)CC1 + CCn1c(-c2cc(N3CCN(C)CC3)cnc2C(C)OC)c2c3cc(ccc31)-c1csc(n1)CC(NC(=O)C1CC1C)C(=O)N1CCCC(N1)C(=O)OCC(C)(C)C2
CLASSIFICATION: inactive

Tell me the assay call for CCC(CC)c1cc(NC2CCC(N)C2)n2nccc2n1 (centres undefined) + CCn1c(-c2cc(N3CCN(C)CC3)cnc2C(C)OC)c2c3cc(ccc31)-c1csc(n1)CC(NC(=O)C1CC1C)C(=O)N1CCCC(N1)C(=O)OCC(C)(C)C2 please.
inactive
